Provenance of the data: patent US20070021391A1

- targetOrTestSystem: acetylcholine esterase of human erythrocyte origin (Homo sapiens, UniProt P22303)
- Construct: acetylcholine esterase of human erythrocyte origin; purchased Sigma, St. Louis, Mo., USA; host or cells: human erythrocytes
- Sequence (P22303 32-617 isoform P22303-2 limits assumed): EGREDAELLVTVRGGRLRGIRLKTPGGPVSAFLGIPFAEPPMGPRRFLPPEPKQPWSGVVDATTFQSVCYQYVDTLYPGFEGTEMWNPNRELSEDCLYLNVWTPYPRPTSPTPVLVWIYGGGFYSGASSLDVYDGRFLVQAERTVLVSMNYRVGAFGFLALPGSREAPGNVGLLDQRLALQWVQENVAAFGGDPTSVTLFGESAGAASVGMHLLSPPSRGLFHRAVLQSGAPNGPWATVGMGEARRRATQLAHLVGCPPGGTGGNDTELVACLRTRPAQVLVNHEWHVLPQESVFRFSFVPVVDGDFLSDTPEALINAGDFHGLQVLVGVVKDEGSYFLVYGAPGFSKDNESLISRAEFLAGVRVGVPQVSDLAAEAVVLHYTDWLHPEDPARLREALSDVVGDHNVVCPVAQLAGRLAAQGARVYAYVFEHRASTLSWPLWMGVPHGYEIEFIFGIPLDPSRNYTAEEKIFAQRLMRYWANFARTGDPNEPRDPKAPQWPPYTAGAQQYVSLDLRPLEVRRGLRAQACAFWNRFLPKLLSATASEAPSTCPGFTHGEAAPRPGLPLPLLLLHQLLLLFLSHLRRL
- assaySummary: biochemical
- Format: biochemical
- reportedConditions: mean value of twice tests; read-out: AchE IC50
Structures can show the parent of a compound that is named as a salt.
Field: IC50. Provide a value for each of the compounds that follow.
Give bare numbers, in nM.

Record excerpt, results attached:
{"columns": ["compound", "unitLabel", "IC50"],
 "data": [
  ["Cn1c(=O)n(C)c2cc(C(=O)CCCCNCCc3ccccc3Cl)ccc21 [Compound B6, hydrochloride]", "nM", 71],
  ["O=C(CCCCNCCc1ccccc1Cl)c1cc2c3c(c1)CC(=O)N3CCC2 [Compound B1, hydrochloride]", "nM", 56],
  ["COc1ccccc1CCNCCCCC(=O)c1ccc2c(c1)n(C)c(=O)n2C [Compound B5, hydrochloride]", "nM", 65]
]}

# map each compound to its IC50
1. CN(CCCCC(=O)c1ccc2[nH]c(=O)[nH]c2c1)CCc1ccccc1Cl [Compound B2, hydrochloride]
2. CN(CCCCC(=O)c1ccc2c(c1)n(C)c(=O)n2C)CCc1ccccc1Cl [Compound B3, hydrochloride]

Completion:
[224, 28]

---

Give Selectivity b/a for every item shown.
- targetOrTestSystem: acetylcholine esterase of human erythrocyte origin (Homo sapiens)
- Construct: acetylcholine esterase of human erythrocyte origin; purchased Sigma, St. Louis, Mo., USA; host or cells: human erythrocytes
- assaySummary: biochemical
- Format: biochemical
- reportedConditions: BuChE IC50/AChE IC50 (Table 3)
Counter-ions that a name gives are not always drawn.

{"columns": ["molecule", "targetOrTestSystem", "testResult"],
 "data": [
  ["Cn1c(=O)n(C)c2cc(C(=O)CCCCNCCc3ccccc3Cl)ccc21 [Compound B6, hydrochloride]", "acetylcholine esterase of human erythrocyte origin (Homo sapiens)", ">140"],
  ["O=C(CCCCNCCc1ccccc1Cl)c1cc2c3c(c1)CC(=O)N3CCC2 [Compound B1, hydrochloride]", "acetylcholine esterase of human erythrocyte origin (Homo sapiens)", 100],
  ["CN(CCCCC(=O)c1ccc2[nH]c(=O)[nH]c2c1)CCc1ccccc1Cl [Compound B2, hydrochloride]", "acetylcholine esterase of human erythrocyte origin (Homo sapiens)", ">45"]
]}

# return Selectivity b/a for each item in the list
1. COc1ccccc1CCNCCCCC(=O)c1ccc2c(c1)n(C)c(=O)n2C [Compound B5, hydrochloride]
2. CN(CCCCC(=O)c1ccc2c(c1)n(C)c(=O)n2C)CCc1ccccc1Cl [Compound B3, hydrochloride]
3. CCNC(=O)N1CCc2cc(C(=O)CCCCNCCc3ccccc3OC)ccc21.Cl

Completion:
>150
>350
>85

---

- targetOrTestSystem: butyrylcholine esterase of human serum origin (Homo sapiens, UniProt P06276)
- Construct: butyrylcholine esterase of human serum origin; purchased Biogenesis, Poole, UK; host or cells: human serum
- Sequence (P06276 29-602): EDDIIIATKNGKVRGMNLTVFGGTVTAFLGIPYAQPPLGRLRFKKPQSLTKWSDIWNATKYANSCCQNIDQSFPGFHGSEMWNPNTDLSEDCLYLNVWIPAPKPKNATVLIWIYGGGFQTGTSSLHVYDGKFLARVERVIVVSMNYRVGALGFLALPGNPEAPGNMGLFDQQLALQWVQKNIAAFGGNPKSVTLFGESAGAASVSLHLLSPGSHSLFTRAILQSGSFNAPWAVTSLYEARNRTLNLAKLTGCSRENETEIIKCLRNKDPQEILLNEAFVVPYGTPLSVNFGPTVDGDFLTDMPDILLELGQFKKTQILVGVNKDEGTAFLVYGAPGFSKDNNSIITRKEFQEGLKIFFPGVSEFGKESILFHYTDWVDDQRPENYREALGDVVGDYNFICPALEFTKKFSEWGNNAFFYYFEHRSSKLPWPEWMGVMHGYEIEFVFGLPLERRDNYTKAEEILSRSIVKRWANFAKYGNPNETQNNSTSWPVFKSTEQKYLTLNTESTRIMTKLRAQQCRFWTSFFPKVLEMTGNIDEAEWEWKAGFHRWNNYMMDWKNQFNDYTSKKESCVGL
- assaySummary: biochemical
- Assay type: biochemical
- reportedConditions: mean value of twice tests; read-out: BuChE IC50
Structures can show the parent of a compound that is named as a salt.
measuredAttribute: IC50

{"columns": ["molecule", "IC50"],
 "data": [
  ["Cn1c(=O)n(C)c2cc(C(=O)CCCCNCCc3ccccc3Cl)ccc21 [Compound B6, hydrochloride]", "> 10 µM"]
]}

For each entry beneath this line, provide reported IC50.
1. COc1ccccc1CCNCCCCC(=O)c1ccc2c(c1)n(C)c(=O)n2C [Compound B5, hydrochloride]
2. CN(CCCCC(=O)c1ccc2c(c1)n(C)c(=O)n2C)CCc1ccccc1Cl [Compound B3, hydrochloride]
3. CN(CCCCC(=O)c1ccc2[nH]c(=O)[nH]c2c1)CCc1ccccc1Cl [Compound B2, hydrochloride]
4. O=C(CCCCNCCc1ccccc1Cl)c1cc2c3c(c1)CC(=O)N3CCC2 [Compound B1, hydrochloride]

Completion:
["> 10 µM", "> 10 µM", "> 10 µM", "5.7 µM"]

---

- targetOrTestSystem: butyrylcholine esterase of human serum origin (Homo sapiens, UniProt P06276)
- Construct: butyrylcholine esterase of human serum origin; purchased Biogenesis, Poole, UK; host or cells: human serum
- assaySummary: biochemical
- Format: biochemical
- reportedConditions: mean value of twice tests; read-out: Butyrylcholine esterase IC50
measuredAttribute: pIC50
One number for each entry, as −log10 of the molar value.

Prompt: Return reported pIC50; argument: CN(CCCCCCN(C)C(=O)Oc1ccc[n+](C)c1)C(=O)Oc1ccc[n+](C)c1 [Distigmine]
Completion: 6.27

---

- targetOrTestSystem: acetylcholine esterase of human erythrocyte origin (Homo sapiens)
- Construct: acetylcholine esterase of human erythrocyte origin; purchased Sigma, St. Louis, Mo., USA; host or cells: human erythrocytes
- assaySummary: biochemical
- Type: biochemical
measuredAttribute: IC50 (µM)
Answers are plain numbers, in µM.

Prompt: Which IC50 reading was recorded for the compound CCNC(=O)N1CCc2cc(C(=O)CCCCNCCc3ccccc3OC)ccc21.Cl [Compound B4, hydrochloride] ?
Completion: 0.118
